test: DSSTox (CPDBAS) Carcinogenic Potency Database Summary SingleCellCall Results; conditions: animal chronic carcinogenicity bioassays, CPDB summary call
Active and inactive are the calls of the source.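 Rule for the calls: active = a tumor-causing dose value with its tumor site reported for any sex and species group of a rodent or other animal cancer study; inconclusive = only studies judged inadequate by the national testing program; inactive = tested in at least one study, none positive.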
Outcomes: active, inactive

Compound: CC(C)(C)c1cc(O)ccc1O
Label: inactive

Compound: NC(N)=S
Label: active

Compound: CN(C)CCN(Cc1ccco1)c1ccccn1
Label: inactive

Compound: O=Cc1ccccc1
Label: active

Compound: Nc1ccc(Cl)c(N)c1
Label: active

Compound: C=C1C/C(=C/C)C(=O)O[C@@H]2CCN3CC=C(COC(=O)[C@@]1(O)CO)[C@H]23
Label: active

Compound: Clc1cc2c(c(Cl)c1Cl)Oc1c(cc(Cl)c(Cl)c1Cl)O2
Label: active

Compound: CCCN(CCC)N=O
Label: active

Compound: CC[C@H](OC(C)=O)C(C[C@H](C)N(C)C)(c1ccccc1)c1ccccc1
Label: active

Compound: O=[As]O
Label: inactive

Compound: ClCC(Cl)CCl
Label: active

Compound: O.O.O.O.O.O.O.O=S(=O)([O-])[O-].[Co+2]
Label: active

Compound: CC(=O)N[C@@H](CS)C(=O)O
Label: inactive

Compound: CNC(=O)Oc1cccc2c1OC(C)(C)C2
Label: inactive

Compound: CN(N=O)c1ccc([N+](=O)[O-])cc1
Label: inactive

Compound: CC(C)(CCCOc1ccc(OCCCC(C)(C)C(=O)O)c(-c2ccccc2)c1)C(=O)O
Label: active

Compound: COc1cc(-c2ccc(N=Nc3c(S(=O)(=O)O)cc4cc(S(=O)(=O)O)cc(N)c4c3O)c(OC)c2)ccc1N=Nc1c(S(=O)(=O)O)cc2cc(S(=O)(=O)O)cc(N)c2c1O
Label: active

Compound: C=COC(C)=O
Label: active

Compound: Cc1ccc2c(c1)C(N1CCN(C)CC1)=Nc1ccccc1S2
Label: inactive

Compound: Cc1c(N(C)CS(=O)(=O)O)c(=O)n(-c2ccccc2)n1C
Label: active

Compound: Nc1ccc([N+](=O)[O-])cc1O
Label: active

Compound: NC1=NCN([C@@H]2O[C@H](CO)[C@@H](O)[C@H]2O)C(=O)N1
Label: inactive

Compound: C=C(C)CCl
Label: active

Compound: CN(N=O)c1ccc(F)cc1
Label: active

Compound: COC(=O)C1=C(C)NC(C)=C(C(=O)OCCc2ccc(N3CCN(C(c4ccccc4)c4ccccc4)CC3)cc2)C1c1cccc([N+](=O)[O-])c1 (stereo not given)
Label: inactive

Compound: O.O=S(=O)([O-])[O-].[Mn+2]
Label: inactive

Compound: C/C=C/Cl
Label: active

Compound: Nc1nc(-c2ccc([N+](=O)[O-])cc2)cs1
Label: active

Compound: O=C(O)CN(CC(=O)O)CC(=O)O
Label: active

Compound: C=CCCl
Label: inactive

Compound: O=[N+]([O-])/C=C/c1ccccc1
Label: inactive

Compound: OC[C@H]1O[C@@H]2O[C@H]3[C@H](O)[C@@H](O)[C@@H](O[C@H]4[C@H](O)[C@@H](O)[C@@H](O[C@H]5[C@H](O)[C@@H](O)[C@@H](O[C@H]6[C@H](O)[C@@H](O)[C@@H](O[C@H]7[C@H](O)[C@@H](O)[C@@H](O[C@H]8[C@H](O)[C@@H](O)[C@@H](O[C@H]1[C@H](O)[C@H]2O)O[C@@H]8CO)O[C@@H]7CO)O[C@@H]6CO)O[C@@H]5CO)O[C@@H]4CO)O[C@@H]3CO
Label: inactive

Compound: CCBr
Label: active

Compound: Oc1cc2c(cc1O)[C@H]1c3ccc(O)c(O)c3OC[C@@]1(O)C2
Label: active

Compound: Cc1cc(Cc2cc(C)cc(C(C)(C)C)c2O)c(O)c(C(C)(C)C)c1
Label: inactive

Compound: CCN(CC)C(C)=O
Label: active

Compound: COc1cc(OC)c2c3c(c(=O)oc2c1)CCC3
Label: inactive

Compound: ClC1=C(Cl)C(Cl)(Cl)C(Cl)=C1Cl
Label: inactive

Compound: CN(C)c1ccc(C(=N)c2ccc(N(C)C)cc2)cc1
Label: active

Compound: COc1c2occc2cc2ccc(=O)oc12
Label: active

Compound: NC(=O)CCCCn1ccc(NC(N)=NCC(F)(F)F)n1
Label: active

Compound: C=CC(=O)c1ccc2c(c1)OCO2
Label: inactive

Compound: C=C(C)[C@H]1CC=C(C)C(=O)C1
Label: inactive

Compound: CSCCC(N)C(=O)O (stereo not given)
Label: inactive

Compound: CN(C)NC(=O)CCC(=O)O
Label: active

Compound: CC(C)OC(=O)Nc1ccccc1
Label: inactive

Compound: CCN(CC)C(=S)[S-].CCN(CC)C(=S)[S-].[Cd+2]
Label: inactive

Compound: CCN(CC)C(=S)S[Se](SC(=S)N(CC)CC)(SC(=S)N(CC)CC)SC(=S)N(CC)CC
Label: active

Compound: CCN(CC)CC#CC(C)(C)OC(=O)C(O)(c1ccccc1)C1CCCCC1 (stereo not given)
Label: inactive

Compound: O=C(O)c1ccncc1
Label: inactive
